# log10 IC50 values compiled below
Assay System: cdk1/cyclin B (Homo sapiens)
Sequence (P06493 whole entry): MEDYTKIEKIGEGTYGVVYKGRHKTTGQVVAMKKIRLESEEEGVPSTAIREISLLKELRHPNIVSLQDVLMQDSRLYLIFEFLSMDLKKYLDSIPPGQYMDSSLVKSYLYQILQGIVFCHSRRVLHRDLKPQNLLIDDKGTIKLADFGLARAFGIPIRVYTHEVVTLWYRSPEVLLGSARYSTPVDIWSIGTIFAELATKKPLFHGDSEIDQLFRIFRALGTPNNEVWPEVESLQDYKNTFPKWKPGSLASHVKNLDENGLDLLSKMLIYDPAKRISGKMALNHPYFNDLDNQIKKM
Sequence (P14635 whole entry partner): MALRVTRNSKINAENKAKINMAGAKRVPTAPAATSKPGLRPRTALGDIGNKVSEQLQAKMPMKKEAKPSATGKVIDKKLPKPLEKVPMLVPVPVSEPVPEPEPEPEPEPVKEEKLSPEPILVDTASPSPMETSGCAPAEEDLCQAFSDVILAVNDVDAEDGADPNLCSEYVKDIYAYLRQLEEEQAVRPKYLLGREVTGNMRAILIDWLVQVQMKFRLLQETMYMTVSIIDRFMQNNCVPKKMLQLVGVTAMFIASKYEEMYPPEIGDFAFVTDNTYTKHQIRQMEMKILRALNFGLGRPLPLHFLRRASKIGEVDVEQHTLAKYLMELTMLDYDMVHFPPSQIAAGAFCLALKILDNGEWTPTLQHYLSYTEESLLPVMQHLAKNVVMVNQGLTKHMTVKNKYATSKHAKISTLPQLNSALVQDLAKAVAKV
Method Description: Cyclin-dependent kinase assay, cdk1/cyclin B
Conditions: CDK1 IC50, nM, Histone H1, 10 µM ATP
Where a name gives a salt, the structure may show the parent alone.
Reported Property: log10 IC50 (log10 of the value in nM)

CCC(C(=O)N1CCC(Nc2nc(N[C@H]3CC[C@H](N)CC3)nc3c2ncn3C2CCCC2)CC1)c1ccccc1 (relative stereo) [compound 41, dihydrochloride] ... 1.77
N[C@H]1CC[C@H](Nc2nc(NC3CCN(C(=O)c4cccc5c4-c4ccccc4C5=O)CC3)c3ncn(C4CCCC4)c3n2)CC1 [compound 66] ... 2.37
N[C@H]1CC[C@H](Nc2nc(NC3CCN(C(=O)NC4CCCCC4)CC3)c3ncn(C4CCCC4)c3n2)CC1 [compound 205, dihydrochloride] ... 2.46
COc1cc(OC)cc(C(=O)N2CCC(Nc3nc(N[C@H]4CC[C@H](N)CC4)nc4c3ncn4C3CCCC3)CC2)c1 [compound 17] ... 1.95
CCCCCCc1ccc(C(=O)N2CCC(Nc3nc(N[C@H]4CC[C@H](N)CC4)nc4c3ncn4C3CCCC3)CC2)cc1 [compound 23] ... 2.48
C=CCNC(=O)N1CCC(Nc2nc(N[C@H]3CC[C@H](N)CC3)nc3c2ncn3C2CCCC2)CC1 [compound 164, dihydrochloride] ... 2.18
CC(=O)Nc1nc(C)c(S(=O)(=O)N2CCC(Nc3nc(N[C@H]4CC[C@H](N)CC4)nc4c3ncn4C3CCCC3)CC2)s1 [compound 113, dihydrochloride] ... 1.26
C/C=C/C(=O)N1CCC(Nc2nc(N[C@H]3CC[C@H](N)CC3)nc3c2ncn3C2CCCC2)CC1 [compound 35, dihydrochloride] ... 1.68
N[C@H]1CC[C@H](Nc2nc(NC3CCN(C(=O)c4ccc(I)cc4)CC3)c3ncn(C4CCCC4)c3n2)CC1 [compound 76] ... 1.76
N[C@H]1CC[C@H](Nc2nc(NC3CCN(C(=O)c4cccc(Br)c4)CC3)c3ncn(C4CCCC4)c3n2)CC1 [compound 71] ... 1.72
N[C@H]1CC[C@H](Nc2nc(NC3CCN(S(=O)(=O)c4cccc(C(=O)O)c4)CC3)c3ncn(C4CCCC4)c3n2)CC1 [compound 135, dihydrochloride] ... 1.90
N[C@H]1CC[C@H](Nc2nc(NC3CCN(C(=O)NC(=O)c4ccccc4)CC3)c3ncn(C4CCCC4)c3n2)CC1 [compound 172, dihydrochloride] ... 1.36
COc1cc(C(=O)N2CCC(Nc3nc(N[C@H]4CC[C@H](N)CC4)nc4c3ncn4C3CCCC3)CC2)cc(OC)c1OC [compound 16] ... 1.63

---

Method Description: Bioavailability experiment in mice given single intravenous cassette doses
Conditions: mice plasma, single intravenous cassette dose, 3 mg/kg/compound (18 mg/kg Total Dose), Cassette #1
Cls below 100 mL/min/kg gives false; Cls at or above it gives true.

Cl.Cl.N#Cc1ccc(S(=O)(=O)N2CCC(Nc3nc(N[C@H]4CC[C@H](N)CC4)nc4c3ncn4C3CCCC3)CC2)cc1 ... false
Cl.Cl.N[C@H]1CC[C@H](Nc2nc(NC3CCN(C(=O)c4cccc(C(F)(F)F)c4F)CC3)c3ncn(C4CCCC4)c3n2)CC1 ... false
COC(=O)c1ccccc1S(=O)(=O)N1CCC(Nc2nc(N[C@H]3CC[C@H](N)CC3)nc3c2ncn3C2CCCC2)CC1.Cl.Cl ... false
Cl.Cl.N[C@H]1CC[C@H](Nc2nc(NC3CCN(C(=O)Oc4ccccc4)CC3)c3ncn(C4CCCC4)c3n2)CC1 ... true
COC(=O)c1ccc(OC(=O)N2CCC(Nc3nc(N[C@H]4CC[C@H](N)CC4)nc4c3ncn4C3CCCC3)CC2)cc1.Cl.Cl ... true

Data origin, for the record: patent EP1377579B1
